- Test system: P388
- assay_method_text: In vitro cytotoxicity was determined by quantitating P388 murine leukemia cells on a oultier counter following a 48 hour exposure of cells to the test compound
- Type: functional, cell-based
- measurement_context: Mus musculus, P388, 48 h
endpoint_label: IC50 (nM)
// return numeric value only (unit: nM, not printed)

Quick one: IC50 of Cc1cc(-c2c(F)cc3/c(=N/N)ccn(C4CC4)c3c2F)cc(C)n1 ?
3000

====

What EC50 was measured for each of the following?
- system_name: DNA topoisomerase II (Homo sapiens, UniProt P11388+Q02880)
- assay_method_text: Inhibitory activity in a cell-free assay of DNA cleavage mediated by purified HeLa cell topoisomerase II.
// return numeric value only (unit: µM, not printed)

Short answer please: EC50, DNA topoisomerase II (Homo sapiens, UniProt P11388+Q02880), entry Cc1cc(-c2c(F)cc3/c(=N/Nc4ccccn4)ccn(C4CC4)c3c2F)cc(C)n1
0.98

Same lookup for Cc1cc(-c2c(F)cc3/c(=N/c4ccccc4O)ccn(C4CC4)c3c2F)cc(C)n1 , please.
1.6

Same lookup for Cc1cc(-c2c(F)cc3/c(=N/N(C)C)ccn(C4CC4)c3c2F)cc(C)n1 , please.
2.3

Same lookup for Cc1cc(-c2c(F)cc3/c(=N/c4ccc(N)cc4)ccn(C4CC4)c3c2F)cc(C)n1 , please.
7.6

Same lookup for Cc1cc(-c2c(F)cc3/c(=N/CCN(C)C)ccn(C4CC4)c3c2F)cc(C)n1 , please.
14

Same lookup for Cc1ccc(S(=O)(=O)/N=c2\ccn(C3CC3)c3c(F)c(-c4cc(C)nc(C)c4)c(F)cc23)cc1 , please.
45

Same lookup for Cc1cc(-c2c(F)cc3c(c2F)N(C2CC2)C=CC3=C(C#N)C#N)cc(C)n1 , please.
6.3

Same lookup for CC(=O)N/N=c1\ccn(C2CC2)c2c(F)c(-c3cc(C)nc(C)c3)c(F)cc12 , please.
20

Same lookup for Cc1cc(-c2c(F)cc3/c(=N/C4CC4)ccn(C4CC4)c3c2F)cc(C)n1 , please.
2.4

Same lookup for Cc1cc(-c2c(F)cc3/c(=N/N)ccn(C4CC4)c3c2F)cc(C)n1 , please.
1.7

Same lookup for Cc1cc(-c2c(F)cc3/c(=N/c4ccccn4)ccn(C4CC4)c3c2F)cc(C)n1 , please.
3.6

Same lookup for Cc1cc(-c2c(F)cc3/c(=N/NCCO)ccn(C4CC4)c3c2F)cc(C)n1 , please.
3.2

Same lookup for Cc1cc(-c2c(F)cc3c(=N)ccn(C4CC4)c3c2F)cc(C)n1 , please.
12

Same lookup for Cc1cc(-c2c(F)cc3c(=S)ccn(C4CC4)c3c2F)cc(C)n1 , please.
76

Same lookup for Cc1cc(-c2c(F)cc3/c(=N\O)ccn(C4CC4)c3c2F)cc(C)n1 , please.
1.4

Same lookup for Cc1cc(-c2c(F)cc3/c(=N/Sc4ccccn4)ccn(C4CC4)c3c2F)cc(C)n1 , please.
3.8

Same lookup for Cc1cc(-c2c(F)cc3/c(=N/N4C(=O)c5ccccc5C4=O)ccn(C4CC4)c3c2F)cc(C)n1 , please.
16

Same lookup for Cc1cc(-c2c(F)cc3/c(=N/Nc4cnc5ccccc5c4)ccn(C4CC4)c3c2F)cc(C)n1 , please.
92

Same lookup for Cc1cc(-c2c(F)cc3c(c2F)N(C2CC2)C=C/C3=C/C#N)cc(C)n1 , please.
4

Same lookup for Cc1cc(-c2c(F)cc3/c(=N/Sc4ccc(Cl)cc4)ccn(C4CC4)c3c2F)cc(C)n1 , please.
9.4
